Values compiled from patent US20210275641A1.

TEST_TARGET: T1, human high affinity trimeric IL-2 receptor (CD25/CD122/CD132) (human, UniProt P01589 22-272; P14784 27-551; P31785 23-369)
T1 sequence 1: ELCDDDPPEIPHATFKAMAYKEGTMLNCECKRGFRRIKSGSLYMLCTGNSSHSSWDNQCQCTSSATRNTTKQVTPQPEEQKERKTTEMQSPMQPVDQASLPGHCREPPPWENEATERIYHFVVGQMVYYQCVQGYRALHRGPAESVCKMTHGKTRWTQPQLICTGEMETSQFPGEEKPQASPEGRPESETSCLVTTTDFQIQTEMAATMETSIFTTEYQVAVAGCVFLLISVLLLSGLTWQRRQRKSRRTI
T1 sequence 2: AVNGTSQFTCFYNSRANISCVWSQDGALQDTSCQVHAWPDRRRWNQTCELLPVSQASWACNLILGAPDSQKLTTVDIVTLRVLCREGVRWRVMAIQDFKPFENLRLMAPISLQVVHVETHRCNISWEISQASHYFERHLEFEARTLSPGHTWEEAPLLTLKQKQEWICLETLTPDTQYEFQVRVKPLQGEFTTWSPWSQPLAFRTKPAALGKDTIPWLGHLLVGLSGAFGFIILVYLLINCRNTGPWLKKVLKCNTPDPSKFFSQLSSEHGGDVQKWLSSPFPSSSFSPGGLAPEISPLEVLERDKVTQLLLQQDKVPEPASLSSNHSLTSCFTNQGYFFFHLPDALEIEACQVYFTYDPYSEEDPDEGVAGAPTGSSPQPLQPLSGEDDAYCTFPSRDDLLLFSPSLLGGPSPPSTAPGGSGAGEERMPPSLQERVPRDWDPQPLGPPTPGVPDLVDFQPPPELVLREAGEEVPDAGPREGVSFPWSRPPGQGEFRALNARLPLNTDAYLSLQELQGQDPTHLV
T1 sequence 3: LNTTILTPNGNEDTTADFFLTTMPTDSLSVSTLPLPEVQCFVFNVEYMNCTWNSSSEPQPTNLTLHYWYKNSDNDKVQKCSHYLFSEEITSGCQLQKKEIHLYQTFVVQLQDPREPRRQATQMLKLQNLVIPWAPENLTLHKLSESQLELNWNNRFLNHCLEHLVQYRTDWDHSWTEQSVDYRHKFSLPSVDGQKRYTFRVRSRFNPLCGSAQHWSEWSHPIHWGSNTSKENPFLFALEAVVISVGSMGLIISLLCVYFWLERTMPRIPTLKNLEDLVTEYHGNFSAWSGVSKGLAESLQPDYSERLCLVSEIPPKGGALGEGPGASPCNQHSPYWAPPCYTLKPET
PROCEDURE_DETAILS: cell-based or functional assay
A collection of binders and their measured pSTAT5 ratio YT CD25/YT, dilution factor 64, upper table
The response must contain the number and no unit.

Challenge: pSTAT5 ratio YT CD25/YT, dilution factor 64, upper table for KEH (ligand) cytokine: APTSSSTKKTQLQLEHLKLDLEMILNGINNYKNPKLTRMLTFKFYMPKKATELKHLQCLEEELKPLEEVLNLAQSKNFHLRPRDLISNINVIVLELKGSETTFMCEYADETATIVEFLNRWITFCHSIISTLT ?
Response given: 2.3

Challenge: Please give the result for SEH (ligand) cytokine: APTSSSTKKTQLQLEHLSLDLEMILNGINNYKNPKLTRMLTFKFYMPKKATELKHLQCLEEELKPLEEVLNLAQSKNFHLRPRDLISNINVIVLELKGSETTFMCEYADETATIVEFLNRWITFCHSIISTLT too.
Response given: 11.4

Challenge: Please give the result for hIL2 mutein REH (L18R, Q22E, Q126H) (ligand) APTSSSTKKTQLQLEHLRLDLEMILNGINNYKNPKLTRMLTFKFYMPKKATELKHLQCLEEELKPLEEVLNLAQSKNFHLRPRDLISNINVIVLELKGSETTFMCEYADETATIVEFLNRWITFCHSIISTLT too.
Response given: 2.9

Challenge: Please give the result for WEH (ligand) cytokine: APTSSSTKKTQLQLEHLWLDLEMILNGINNYKNPKLTRMLTFKFYMPKKATELKHLQCLEEELKPLEEVLNLAQSKNFHLRPRDLISNINVIVLELKGSETTFMCEYADETATIVEFLNRWITFCHSIISTLT too.
Response given: 6.4

Challenge: Please give the result for QEH (ligand) cytokine: APTSSSTKKTQLQLEHLQLDLEMILNGINNYKNPKLTRMLTFKFYMPKKATELKHLQCLEEELKPLEEVLNLAQSKNFHLRPRDLISNINVIVLELKGSETTFMCEYADETATIVEFLNRWITFCHSIISTLT too.
Response given: 8.3
